Tested on: Staphylococcus aureus 101
Assay: MIC against Staphylococcus aureus 101
Assay type: cell-based
Settings: Table 2; Staphylococcus aureus 101, MRSA- and trimethoprim-resistant; clinical isolate; read-out: MIC Sa101
ASSAY METRIC: MIC (µg/mL)
Return type: number; implicit unit µg/mL.

Query: MIC; subject: CCOc1cc(Cc2cnc(N)nc2N)cc(OS(=O)(=O)C(C)CC)c1-c1ccc(OCCO)cc1 (stereo not shown) [Example 61-b]
2

And the next one, CCOc1cc(Cc2cnc(N)nc2N)cc(OS(=O)(=O)N(CC)CC)c1-c1ccc(O)cc1 [Example 20-h] ?
2

And the next one, CCOc1cc(Cc2cnc(N)nc2N)cc(OS(=O)(=O)CC(C)(C)OC)c1-c1cccc(N)c1 [Example 39-a] ?
4

And the next one, CCOc1cc(Cc2cnc(N)nc2N)cc(OCC2CC2)c1-c1ccc(N)c(C)c1 [Example 11-a] ?
8

And the next one, CCOc1cc(Cc2cnc(N)nc2N)cc(OCCC2CCOCC2)c1-c1ccc(O)cc1 [Example 08-e] ?
8

And the next one, CCOc1cc(Cc2cnc(N)nc2N)cc(OCCc2scnc2C)c1-c1ccc(O)cc1 [Example 08-q] ?
8

And the next one, CCOc1cc(Cc2cnc(N)nc2N)cc(OS(=O)(=O)CC(C)(C)C)c1-c1ccc(N)cc1 [Example 37-c] ?
4

And the next one, CCOc1cc(Cc2cnc(N)nc2N)cc(OCC)c1-c1cccc(NC(C)=O)c1 [Example 05-c] ?
8

And the next one, CCOc1cc(Cc2cnc(N)nc2N)cc(O[C@@H]2CCC[C@H]2OC)c1-c1ccc(O)cc1 (relative stereo) [Example 08-y] ?
8

And the next one, CCOc1cc(Cc2cnc(N)nc2N)cc(OCC)c1-c1cnc(CN2CCOCC2)nc1 [Example 04-x] ?
8

And the next one, CCOc1cc(Cc2cnc(N)nc2N)cc(OCC)c1-c1ccc(COCC(=O)N2CCOCC2)s1 [Example 03-a] ?
8

And the next one, CCOc1cc(Cc2cnc(N)nc2N)cc(OS(=O)(=O)CC(C)C)c1-c1ccc(OC)c(N)c1 [Example 36-d] ?
2

And the next one, CCOc1cc(Cc2cnc(N)nc2N)cc(OCC)c1-c1ccc(NC(C)=O)c(C)c1 [Example 04-e] ?
8

And the next one, CCOc1cc(Cc2cnc(N)nc2N)cc(OCCC2CCCCO2)c1-c1ccc(O)cc1 (racemic) [Example 08-t] ?
8

And the next one, CCOc1cc(Cc2cnc(N)nc2N)cc(OS(=O)(=O)C2CC2)c1-c1ccc(CN2CCOCC2)c(N)c1 [Example 34-e] ?
4

And the next one, CCOc1cc(Cc2cnc(N)nc2N)cc(OS(=O)(=O)CC(C)(C)C)c1-c1ccc(N)c(F)c1 [Example 37-a] ?
4

---

Target: purified DHFR of strain Sp1/1 of Streptococcus pneumoniae (Streptococcus pneumoniae serotype 4, UniProt Q54801)
Type: biochemical
Conditions: Table 2; IC50 against purified DHFR of strain Sp1/1
One threshold, 20 nM, splits the recorded IC50 values: lower ones are met, equal or higher ones are not met.

Consider the compound CCOc1cc(Cc2cnc(N)nc2N)cc(OS(=O)(=O)C(C)C)c1-c1ccc(CN2CCOCC2)c(N)c1 [Example 33-d] . Is its IC50 strictly less than 20 nM?
met

And the next one, CCOc1cc(Cc2cnc(N)nc2N)cc(OS(=O)(=O)C2CCC2)c1-c1cc(N)cc(F)c1 [Example 40-e] ?
not met

And the next one, CCOc1cc(Cc2cnc(N)nc2N)cc(OCC)c1-c1ccc(N)c(C)c1 [Example 04-f] ?
not met

And the next one, CCOc1cc(Cc2cnc(N)nc2N)cc(O[C@@H]2CCC[C@H]2OC)c1-c1ccc(O)cc1 (relative stereo) [Example 08-y] ?
not met

And the next one, CCOc1cc(Cc2cnc(N)nc2N)cc(OCC2CC2)c1-c1cccc(O)c1 [Example 54-] ?
met

And the next one, CCOc1cc(Cc2cnc(N)nc2N)cc(OCC)c1-c1cccc(OCCOC)c1 [Example 50-] ?
not met

And the next one, CCOc1cc(Cc2cnc(N)nc2N)cc(OCC2CC2)c1-c1ccc(CN2CCOCC2)s1 [Example 23-] ?
met

And the next one, CCOc1cc(Cc2cnc(N)nc2N)cc(OCC)c1-c1ccc(N(C)C)cc1 [Example 02-v] ?
not met

---

Field: pIC50. Provide a value for each of the compounds that follow.
Target: purified DHFR of strain Sp1/1 of Streptococcus pneumoniae (Streptococcus pneumoniae serotype 4, UniProt Q54801)
Sequence (Q54801 1-168 I100L): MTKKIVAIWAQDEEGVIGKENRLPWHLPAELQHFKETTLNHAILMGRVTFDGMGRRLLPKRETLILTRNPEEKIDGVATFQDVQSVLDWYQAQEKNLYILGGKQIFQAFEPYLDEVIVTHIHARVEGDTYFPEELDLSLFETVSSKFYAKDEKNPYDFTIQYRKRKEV
Assay type: biochemical
Details: Table 2; IC50 against purified DHFR of strain Sp1/1
# pIC50: negative log10 of molar concentration; output just the value

Query: pIC50; subject: CCOc1cc(Cc2cnc(N)nc2N)cc(OCC)c1-c1ccco1 [Example 02-o]
7.00

And the next one, CCOc1cc(Cc2cnc(N)nc2N)cc(OCC)c1-c1ccc(NC)cc1 [Example 04-ab] ?
6.92

And the next one, CCOc1cc(Cc2cnc(N)nc2N)cc(OCC)c1-c1ccc(OC)c(C)c1 [Example 02-n] ?
6.96

And the next one, CCOc1cc(Cc2cnc(N)nc2N)cc(OS(=O)(=O)CC(C)C)c1-c1ccc(NCCO)cc1 [Example 36-e] ?
8.68

And the next one, CCOc1cc(Cc2cnc(N)nc2N)cc(OS(=O)(=O)N(CC)CC)c1-c1ccc(O)cc1 [Example 20-h] ?
8.04

And the next one, CCOc1cc(Cc2cnc(N)nc2N)cc(OS(=O)(=O)N(C)C2CC2)c1-c1ccc(NC)cc1 [Example 26-d] ?
8.29

And the next one, CCOc1cc(Cc2cnc(N)nc2N)cc(OS(=O)(=O)CC(C)(C)C)c1-c1cccc(N)c1 [Example 14-i] ?
8.27

And the next one, CCOc1cc(Cc2cnc(N)nc2N)cc(OCC)c1-c1ccc(NC(=O)CN2CCOCC2)cc1 [Example 04-g] ?
7.40

---

Target: purified DHFR of strain 157/4696 of Staphylococcus aureus (Staphylococcus aureus, UniProt P13955)
Sequence (P13955 whole entry): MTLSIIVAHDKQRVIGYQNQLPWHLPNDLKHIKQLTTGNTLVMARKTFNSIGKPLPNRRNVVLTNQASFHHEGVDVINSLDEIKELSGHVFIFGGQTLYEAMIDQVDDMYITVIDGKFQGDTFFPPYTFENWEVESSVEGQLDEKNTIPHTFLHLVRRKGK
Test: biochemical
Field: pIC50. Provide a value for each of the compounds that follow.
# pIC50: negative log10 of molar concentration; output just the value

Query: pIC50; subject: CCCS(=O)(=O)Oc1cc(Cc2cnc(N)nc2N)cc(OCC)c1-c1ccc(O)cc1
7.21

And the next one, CCOc1cc(Cc2cnc(N)nc2N)cc(OCC2(CC#N)CC2)c1-c1cccc(N)c1 ?
6.02

And the next one, CCOc1cc(Cc2cnc(N)nc2N)cc(OCC(C)(C)/C=C/C#N)c1-c1ccc(O)cc1 ?
6.02

And the next one, CCOc1cc(Cc2cnc(N)nc2N)cc(OC2CCC(OC)C2)c1-c1ccc(O)cc1 (centres unmarked) ?
5.92

And the next one, CCOc1cc(Cc2cnc(N)nc2N)cc(OCC)c1-c1ccc2c(c1)OCO2 ?
5.60

And the next one, CCOc1cc(Cc2cnc(N)nc2N)cc(OS(=O)(=O)N2CCCC2)c1-c1cccc(N)c1 ?
7.18

And the next one, CCOc1cc(Cc2cnc(N)nc2N)cc(OCC)c1-c1ccc2[nH]ccc2c1 ?
5.85

And the next one, CCOc1cc(Cc2cnc(N)nc2N)cc(OCC)c1-c1ccc(CN2CCC(=O)N2)cc1 ?
5.92

And the next one, CCOc1cc(Cc2cnc(N)nc2N)cc(OCC2(CCC#N)CC2)c1-c1ccc(OC)cc1 ?
6.05

And the next one, CCOc1cc(Cc2cnc(N)nc2N)cc(OC(C)C)c1-c1ccc(OC)cc1 ?
5.72

And the next one, CCOc1cc(Cc2cnc(N)nc2N)cc(OS(=O)(=O)N(C)C)c1-c1ccc(N)c(F)c1 ?
6.49

And the next one, CCOc1cc(Cc2cnc(N)nc2N)cc(OS(=O)(=O)C2CC2)c1-c1cccc(N)c1 ?
6.57

And the next one, CCOc1cc(Cc2cnc(N)nc2N)cc(OCC)c1-c1cnc(N2CCOCC2)nc1 ?
5.00

And the next one, CCOc1cc(Cc2cnc(N)nc2N)cc(OCC(F)(F)F)c1-c1ccc(O)cc1 ?
5.43

And the next one, CCOc1cc(Cc2cnc(N)nc2N)cc(OCC2CC2)c1-c1cccc(O)c1 ?
5.51

And the next one, CCOc1cc(Cc2cnc(N)nc2N)cc(OCC2CC2)c1-c1ccc(CN2CCOCC2)s1 ?
5.59

And the next one, CCOc1cc(Cc2cnc(N)nc2N)cc(OS(=O)(=O)C2CCC2)c1-c1ccc(CN2CCOCC2)c(N)c1 ?
6.89

Reference source: patent US6821980B1
